Target: Programmed cell death protein 1/Programmed cell death 1 ligand 1 (Homo sapiens, UniProt Q9NZQ7)
Sequence (Q15116 whole entry): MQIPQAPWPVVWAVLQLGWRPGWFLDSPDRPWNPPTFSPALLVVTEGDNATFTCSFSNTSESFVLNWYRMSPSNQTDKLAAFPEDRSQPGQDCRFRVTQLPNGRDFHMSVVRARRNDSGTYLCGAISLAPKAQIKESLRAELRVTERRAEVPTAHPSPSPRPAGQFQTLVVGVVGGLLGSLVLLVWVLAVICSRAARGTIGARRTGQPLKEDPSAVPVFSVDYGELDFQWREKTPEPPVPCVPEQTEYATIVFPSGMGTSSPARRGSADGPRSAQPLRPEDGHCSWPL
Sequence (Q9NZQ7 whole entry): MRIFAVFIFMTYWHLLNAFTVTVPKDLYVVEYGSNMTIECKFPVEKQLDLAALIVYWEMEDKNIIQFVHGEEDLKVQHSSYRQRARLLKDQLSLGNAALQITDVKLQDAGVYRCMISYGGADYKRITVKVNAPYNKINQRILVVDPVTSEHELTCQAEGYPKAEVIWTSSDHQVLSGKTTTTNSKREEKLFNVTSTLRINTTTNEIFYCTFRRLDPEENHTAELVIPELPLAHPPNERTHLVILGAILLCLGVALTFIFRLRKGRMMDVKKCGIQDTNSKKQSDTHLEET
Assay: Inhibition of PD-1/PD-L1 (unknown origin) interaction pre-incubated for 15 mins and measured after 90 mins by TR-FRET assay
pIC50: −log10 of the molar value.
Threshold check on pIC50: at or above 4 gives fulfilled, strictly below gives not fulfilled.

These solved cases illustrate the format of a correct answer.
Cc1c(-c2ccccc2)cccc1-c1nnc(Nc2cccc(CNCC(=O)O)c2)o1 fulfilled
Cc1c(-c2ccccc2)cccc1-c1nnc(Nc2cccc(CNCCCO)c2)o1 fulfilled
Cc1c(-c2ccccc2)cccc1-c1nnc(Nc2cccc(CN3CCOCC3)c2)o1 fulfilled
Cc1c(-c2ccccc2)cccc1-c1nnc(Nc2cccc(CN(C)CCO)c2)o1 fulfilled
Cc1c(-c2ccccc2)cccc1-c1nnc(Nc2cccc(CNCCN)c2)o1 not fulfilled

Task: For this compound, is measured pIC50 4 or higher? CC(=O)NCCNCc1cccc(Nc2nnc(-c3cccc(-c4ccccc4)c3C)o2)c1
Result: fulfilled

Task: // next record CC(=O)NCCNCc1ccc(Nc2nnc(-c3cccc(-c4ccccc4)c3C)o2)cc1
Result: not fulfilled

Task: // next record COc1ccc(Nc2nnc(-c3ccc([N+](=O)[O-])cc3)o2)cc1
Result: fulfilled

Task: // next record Cc1c(-c2ccccc2)cccc1-c1nnc(Nc2cccc(CNCCO)c2)o1
Result: fulfilled

Task: // next record Cc1c(-c2ccccc2)cccc1-c1nnc(Nc2ccc(CNCC(=O)O)cc2)o1
Result: not fulfilled
